Catalogue of compounds with associated residual activity
molecular target: UniProtKB P41743; test: radiometric filter-binding kinase assay, Kinase HotSpot; settings: compound 0.5 µM; ATP 10 µM
Sequence (P41743 whole entry, looked up): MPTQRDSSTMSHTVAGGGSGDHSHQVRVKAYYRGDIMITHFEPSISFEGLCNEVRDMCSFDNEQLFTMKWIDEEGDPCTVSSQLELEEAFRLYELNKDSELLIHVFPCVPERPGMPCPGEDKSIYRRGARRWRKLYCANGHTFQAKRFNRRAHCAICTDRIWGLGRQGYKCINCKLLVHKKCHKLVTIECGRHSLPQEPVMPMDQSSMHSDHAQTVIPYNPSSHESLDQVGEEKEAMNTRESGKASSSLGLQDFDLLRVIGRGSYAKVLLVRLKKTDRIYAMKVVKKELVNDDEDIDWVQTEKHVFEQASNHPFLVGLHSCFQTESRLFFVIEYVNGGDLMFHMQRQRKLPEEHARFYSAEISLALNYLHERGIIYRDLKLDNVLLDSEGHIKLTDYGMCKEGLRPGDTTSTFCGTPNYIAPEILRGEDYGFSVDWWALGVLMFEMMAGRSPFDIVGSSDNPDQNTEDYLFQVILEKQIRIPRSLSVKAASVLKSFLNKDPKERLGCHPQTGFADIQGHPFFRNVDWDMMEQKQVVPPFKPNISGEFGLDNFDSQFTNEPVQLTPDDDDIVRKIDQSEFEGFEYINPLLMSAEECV
endpointName: residual activity (%)

- O=C1Nc2ccccc2/C1=C1\Nc2ccccc2\C1=N/O: 92.2
- Cc1nc2cc3nc(-c4cccs4)cnc3cc2n1C: 99.1
- COc1cc2ncnc(N3CCN(C(=O)Nc4ccc(Oc5ccccc5)cc4)CC3)c2cc1OC: 105
- O=C1NC(=O)C(c2cn(CCCO)c3ncccc23)=C1c1cnccn1: 87
- O=C(Nc1cccc(Nc2cc(Nc3cccc(C(F)(F)F)c3)ncn2)c1)C1CC1: 98.1
- CC(C)[C@H](CO)Nc1nc(Nc2cc(N)cc(Cl)c2)c2ncn(C(C)C)c2n1: 89.6
- CC(=O)O/N=C1\C(=C2\C(=O)Nc3cc(Br)ccc32)Nc2ccccc21: 74.3
- Cn1cnc2cc3c(Nc4cccc(Br)c4)ncnc3cc21: 100
- CC(C)c1nn(-c2c(Cl)cccc2Cl)c2nc(Cc3ccc(OCCO)cc3)nc(O)c12: 95.2
- CN(C)C[C@H]1CCn2c(c(C3=C(c4cn(C)c5ccccc45)C(=O)NC3=O)c3ccccc32)C1: 36.2
- O=C1Nc2ccccc2/C1=C1/Nc2ccccc2/C1=N\OCCC(O)CO (stereo not drawn): 100
- O=C(O)/C=C/c1cc(Br)c(Br)c(Br)c1Br: 97.3
- CCN(CC)CCCCN1c2ccccc2Oc2ccc(Cl)cc21: 105
- Nc1nccc(-c2c(-c3ccc(F)cc3)ncn2C2CCNCC2)n1: 98.5
- Nc1nnc2[nH]c3ccccc3nc1-2: 103
- CCn1cnc2c(Nc3cccc(Cl)c3)nc(N[C@@H]3CCCC[C@@H]3N)nc21: 99.7
- Cn1sc(=O)n(Cc2ccccc2)c1=O: 95.2
- O=C1NC(=O)/C(=C\c2ccc3nccnc3c2)S1: 98.6
- COc1ccc(CNC(=O)Nc2ncc([N+](=O)[O-])s2)cc1: 94.4
- Cn1nc2c3c(cccc31)C(=O)c1ccccc1-2: 98.5
- O=C(CCCc1ccc(-c2ccccc2F)cc1)Nc1ccc(O)cc1: 95.5
- O=C1Cc2c([nH]c3ccc(Br)cc23)-c2ccccc2N1: 89.1
- O=C1NC(=O)C(c2c[nH]c3ccccc23)=C1c1c[nH]c2ccccc12: 96.9

###

biological target: STK11 (human) (UniProt Q15831); test: radiometric filter-binding kinase assay, Kinase HotSpot; settings: compound 0.5 µM; ATP 10 µM
Sequence (Q15831 whole entry, looked up): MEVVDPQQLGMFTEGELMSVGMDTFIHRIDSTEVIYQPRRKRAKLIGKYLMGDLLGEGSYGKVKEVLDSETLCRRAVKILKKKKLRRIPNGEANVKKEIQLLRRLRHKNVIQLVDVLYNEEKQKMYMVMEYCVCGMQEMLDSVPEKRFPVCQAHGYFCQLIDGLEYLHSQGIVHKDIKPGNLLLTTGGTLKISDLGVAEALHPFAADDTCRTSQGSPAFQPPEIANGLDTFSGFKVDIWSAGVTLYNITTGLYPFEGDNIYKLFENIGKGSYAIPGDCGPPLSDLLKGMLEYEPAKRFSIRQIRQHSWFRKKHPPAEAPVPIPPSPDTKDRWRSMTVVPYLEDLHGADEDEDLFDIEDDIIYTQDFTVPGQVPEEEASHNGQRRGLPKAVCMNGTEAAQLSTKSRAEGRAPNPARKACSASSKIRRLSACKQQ
endpointName: residual activity (%)

- CCn1cnc2c(Nc3cccc(Cl)c3)nc(N[C@@H]3CCCC[C@@H]3N)nc21: 78
- CC(=O)O/N=C1\C(=C2\C(=O)Nc3cc(Br)ccc32)Nc2ccccc21: 73.6
- COc1cc2ncc(-c3ccccc3)nc2cc1OC: 86.8
- COc1cc2ncnc(N3CCN(C(=O)Nc4ccc(Oc5ccccc5)cc4)CC3)c2cc1OC: 105
- O=C1NC(=O)C(c2cn(CCCO)c3ncccc23)=C1c1cnccn1: 83.1
- O=C1NC(=O)/C(=C\c2ccc3nccnc3c2)S1: 96.6

###

Below, each of the compounds is paired with its reported residual activity value.
target: CAMK2B (human); assay: radiometric filter-binding kinase assay, Kinase HotSpot; details: compound 0.5 µM; ATP 10 µM
endpointName: residual activity (%)

• O=C(O)/C=C/c1cc(Br)c(Br)c(Br)c1Br = 56.1
• Nc1nnc2[nH]c3ccccc3nc1-2 = 90
• CC(=O)O/N=C1\C(=C2\C(=O)Nc3cc(Br)ccc32)Nc2ccccc21 = 91.5
• CC(C)[C@H](CO)Nc1nc(Nc2cc(N)cc(Cl)c2)c2ncn(C(C)C)c2n1 = 98.2
• Nc1nccc(-c2c(-c3ccc(F)cc3)ncn2C2CCNCC2)n1 = 97.7

###

biological target: UniProtKB P11362; test: radiometric filter-binding kinase assay, Kinase HotSpot; conditions: compound 0.5 µM; ATP 10 µM
Sequence (P11362 whole entry, looked up): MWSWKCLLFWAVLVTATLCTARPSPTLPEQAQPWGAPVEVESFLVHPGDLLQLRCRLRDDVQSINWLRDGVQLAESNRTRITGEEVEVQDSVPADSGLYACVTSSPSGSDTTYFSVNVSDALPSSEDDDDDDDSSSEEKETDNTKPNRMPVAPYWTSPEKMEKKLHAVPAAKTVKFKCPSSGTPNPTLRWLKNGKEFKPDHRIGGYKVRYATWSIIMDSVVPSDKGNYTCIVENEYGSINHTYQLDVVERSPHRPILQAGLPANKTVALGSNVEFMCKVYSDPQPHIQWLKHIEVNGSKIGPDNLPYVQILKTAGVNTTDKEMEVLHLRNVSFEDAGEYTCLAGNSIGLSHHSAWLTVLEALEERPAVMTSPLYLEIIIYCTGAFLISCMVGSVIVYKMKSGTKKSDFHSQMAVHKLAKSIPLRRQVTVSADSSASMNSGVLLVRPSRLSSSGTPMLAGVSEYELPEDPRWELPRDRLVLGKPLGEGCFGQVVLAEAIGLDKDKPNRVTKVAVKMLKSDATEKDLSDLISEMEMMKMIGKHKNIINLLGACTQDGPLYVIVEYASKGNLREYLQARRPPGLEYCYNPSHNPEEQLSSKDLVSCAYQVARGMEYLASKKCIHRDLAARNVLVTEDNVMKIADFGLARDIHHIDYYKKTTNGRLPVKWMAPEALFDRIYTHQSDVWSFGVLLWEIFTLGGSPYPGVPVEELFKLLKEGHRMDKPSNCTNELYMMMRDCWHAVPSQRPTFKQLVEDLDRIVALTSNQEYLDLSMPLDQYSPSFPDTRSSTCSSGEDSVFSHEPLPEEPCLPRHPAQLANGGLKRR
Exam item: assign yes to entries whose residual activity is below 90% and no to entries at or above 90%. Note that a value of exactly 90% receives no.

• COc1cc2ncc(-c3ccccc3)nc2cc1OC = no
• O=C(CCCc1ccc(-c2ccccc2F)cc1)Nc1ccc(O)cc1 = no
• O=C1Nc2ccccc2/C1=C1/Nc2ccccc2/C1=N\OCCC(O)CO (stereo not given) = yes
• CCN(CC)CCCCN1c2ccccc2Oc2ccc(Cl)cc21 = no

###

target: AURKC (human) (UniProt Q9UQB9); assay: radiometric filter-binding kinase assay, Kinase HotSpot; conditions: compound 0.5 µM; ATP 10 µM
Sequence (Q9UQB9 whole entry, looked up): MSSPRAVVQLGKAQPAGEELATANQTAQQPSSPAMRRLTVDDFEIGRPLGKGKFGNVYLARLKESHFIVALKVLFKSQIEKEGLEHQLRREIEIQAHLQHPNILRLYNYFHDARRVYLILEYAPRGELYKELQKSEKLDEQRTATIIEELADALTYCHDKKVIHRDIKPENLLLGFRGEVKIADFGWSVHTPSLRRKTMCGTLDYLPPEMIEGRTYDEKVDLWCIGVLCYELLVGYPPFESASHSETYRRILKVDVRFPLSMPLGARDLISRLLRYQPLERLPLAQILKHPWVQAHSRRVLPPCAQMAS
Property: residual activity; scope: individual compounds
endpointName: residual activity (%)

• CN([C@@H](Cc1ccc(OS(=O)(=O)c2cccc3cnccc23)cc1)C(=O)N1CCN(c2ccccc2)CC1)S(=O)(=O)c1cccc2cnccc12 = 98.2
• COc1ccc(CNC(=O)Nc2ncc([N+](=O)[O-])s2)cc1 = 98.4
• CCn1cnc2c(Nc3cccc(Cl)c3)nc(N[C@@H]3CCCC[C@@H]3N)nc21 = 94.5
• CC(C)c1nn(-c2c(Cl)cccc2Cl)c2nc(Cc3ccc(OCCO)cc3)nc(O)c12 = 87.6
• Oc1ccc(Nc2nc(-c3ccc(Cl)cc3)cs2)cc1 = 97
• O=C1Cc2c([nH]c3ccc(Br)cc23)-c2ccccc2N1 = 90.9
• Nc1nnc2[nH]c3ccccc3nc1-2 = 90.8
• COc1cc2ncnc(N3CCN(C(=O)Nc4ccc(Oc5ccccc5)cc4)CC3)c2cc1OC = 90.3
• COc1cc2ncc(-c3ccccc3)nc2cc1OC = 90.1
• CN(C)C[C@H]1CCn2c(c(C3=C(c4cn(C)c5ccccc45)C(=O)NC3=O)c3ccccc32)C1 = 93.1
• O=C1NC(=O)C(c2c[nH]c3ccccc23)=C1c1c[nH]c2ccccc12 = 101
• Cn1sc(=O)n(Cc2ccccc2)c1=O = 98.8
• CC(=O)O/N=C1\C(=C2\C(=O)Nc3cc(Br)ccc32)Nc2ccccc21 = 86
• O=C(CCCc1ccc(-c2ccccc2F)cc1)Nc1ccc(O)cc1 = 95.4
• O=C(O)/C=C/c1cc(Br)c(Br)c(Br)c1Br = 90.3

###

target: AXL (human) (UniProt P30530); assay: radiometric filter-binding kinase assay, Kinase HotSpot; conditions: compound 0.5 µM; ATP 10 µM
Sequence (P30530 whole entry, looked up): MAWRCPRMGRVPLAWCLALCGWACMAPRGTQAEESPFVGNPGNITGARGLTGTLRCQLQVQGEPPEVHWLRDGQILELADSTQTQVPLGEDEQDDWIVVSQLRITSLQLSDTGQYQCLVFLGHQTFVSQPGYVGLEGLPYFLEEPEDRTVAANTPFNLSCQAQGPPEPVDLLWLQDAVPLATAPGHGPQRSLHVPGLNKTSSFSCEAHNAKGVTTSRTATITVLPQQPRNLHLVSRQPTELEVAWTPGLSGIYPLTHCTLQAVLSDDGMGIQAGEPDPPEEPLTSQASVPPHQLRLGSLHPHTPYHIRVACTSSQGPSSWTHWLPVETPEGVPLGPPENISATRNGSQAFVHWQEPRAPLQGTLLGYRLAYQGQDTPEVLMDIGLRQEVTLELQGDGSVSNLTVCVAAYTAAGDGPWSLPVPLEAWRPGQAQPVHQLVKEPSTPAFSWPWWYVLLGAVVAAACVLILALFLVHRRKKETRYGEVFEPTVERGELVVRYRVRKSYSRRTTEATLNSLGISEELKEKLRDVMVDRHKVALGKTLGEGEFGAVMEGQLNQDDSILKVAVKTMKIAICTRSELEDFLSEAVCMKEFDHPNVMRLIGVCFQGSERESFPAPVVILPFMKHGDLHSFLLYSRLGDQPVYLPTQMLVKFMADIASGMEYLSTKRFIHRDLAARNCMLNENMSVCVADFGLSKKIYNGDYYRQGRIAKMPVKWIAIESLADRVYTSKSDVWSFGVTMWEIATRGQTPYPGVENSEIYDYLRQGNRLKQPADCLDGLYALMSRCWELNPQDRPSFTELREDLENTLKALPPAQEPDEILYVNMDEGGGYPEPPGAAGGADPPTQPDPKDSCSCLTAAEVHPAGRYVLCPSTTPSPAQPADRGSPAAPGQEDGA
endpointName: residual activity

- Cc1nc2cc3nc(-c4cccs4)cnc3cc2n1C: 109%
- COc1cc2ncnc(N3CCN(C(=O)Nc4ccc(Oc5ccccc5)cc4)CC3)c2cc1OC: 91.7%
- CC(=O)O/N=C1\C(=C2\C(=O)Nc3cc(Br)ccc32)Nc2ccccc21: 88%
- O=C1Nc2ccccc2/C1=C1\Nc2ccccc2\C1=N/O: 82.3%
- Nc1nnc2[nH]c3ccccc3nc1-2: 91.3%

###

molecular target: UniProt:Q13555; test: radiometric filter-binding kinase assay, Kinase HotSpot; details: compound 0.5 µM; ATP 10 µM
Sequence (Q13555 whole entry, looked up): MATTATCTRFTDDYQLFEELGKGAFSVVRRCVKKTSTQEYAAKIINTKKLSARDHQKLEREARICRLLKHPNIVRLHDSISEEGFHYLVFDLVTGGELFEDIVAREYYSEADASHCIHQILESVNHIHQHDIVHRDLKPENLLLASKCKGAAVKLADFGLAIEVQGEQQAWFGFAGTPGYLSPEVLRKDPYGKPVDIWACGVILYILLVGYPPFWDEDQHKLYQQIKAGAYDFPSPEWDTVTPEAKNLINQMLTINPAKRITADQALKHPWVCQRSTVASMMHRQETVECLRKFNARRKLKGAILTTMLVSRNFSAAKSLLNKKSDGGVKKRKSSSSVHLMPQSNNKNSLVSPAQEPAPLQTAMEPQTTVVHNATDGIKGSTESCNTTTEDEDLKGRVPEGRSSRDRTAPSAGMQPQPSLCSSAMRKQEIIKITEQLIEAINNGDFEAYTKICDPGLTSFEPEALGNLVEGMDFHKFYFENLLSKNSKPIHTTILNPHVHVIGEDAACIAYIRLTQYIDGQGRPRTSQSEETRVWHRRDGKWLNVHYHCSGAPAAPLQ
endpointName: residual activity (%)

- O=C1Nc2ccccc2/C1=C1/Nc2ccccc2/C1=N\OCCC(O)CO (stereo unspecified): 35.3
- O=C(Nc1cccc(Nc2cc(Nc3cccc(C(F)(F)F)c3)ncn2)c1)C1CC1: 96.1
- O=C1NC(=O)C(c2cn(CCCO)c3ncccc23)=C1c1cnccn1: 90.6
- CC(C)[C@H](CO)Nc1nc(Nc2cc(N)cc(Cl)c2)c2ncn(C(C)C)c2n1: 104
- Nc1nnc2[nH]c3ccccc3nc1-2: 108
- Cc1nc2cc3nc(-c4cccs4)cnc3cc2n1C: 101
- Cn1cnc2cc3c(Nc4cccc(Br)c4)ncnc3cc21: 104
- COc1ccc(CNC(=O)Nc2ncc([N+](=O)[O-])s2)cc1: 102
- O=C(CCCc1ccc(-c2ccccc2F)cc1)Nc1ccc(O)cc1: 109
- Cn1sc(=O)n(Cc2ccccc2)c1=O: 90.1
- CC(C)c1nn(-c2c(Cl)cccc2Cl)c2nc(Cc3ccc(OCCO)cc3)nc(O)c12: 98.9
- CN(C)C[C@H]1CCn2c(c(C3=C(c4cn(C)c5ccccc45)C(=O)NC3=O)c3ccccc32)C1: 100
- O=C(O)/C=C/c1cc(Br)c(Br)c(Br)c1Br: 104
- O=C1Nc2ccccc2/C1=C1\Nc2ccccc2\C1=N/O: 69.8
- CC(=O)O/N=C1\C(=C2\C(=O)Nc3cc(Br)ccc32)Nc2ccccc21: 70.6
- CCN(CC)CCCCN1c2ccccc2Oc2ccc(Cl)cc21: 104
- O=C1Cc2c([nH]c3ccc(Br)cc23)-c2ccccc2N1: 116
- Cn1nc2c3c(cccc31)C(=O)c1ccccc1-2: 109
- COc1cc2ncnc(N3CCN(C(=O)Nc4ccc(Oc5ccccc5)cc4)CC3)c2cc1OC: 100
- Nc1nccc(-c2c(-c3ccc(F)cc3)ncn2C2CCNCC2)n1: 93
- COc1cc2ncc(-c3ccccc3)nc2cc1OC: 94.5
- O=C1NC(=O)/C(=C\c2ccc3nccnc3c2)S1: 101
- Oc1ccc(Nc2nc(-c3ccc(Cl)cc3)cs2)cc1: 90.6
- O=C1NC(=O)C(c2c[nH]c3ccccc23)=C1c1c[nH]c2ccccc12: 104
- COc1ccc(OC)c2c(=S)c3ccccc3[nH]c12: 95.8
- CCn1cnc2c(Nc3cccc(Cl)c3)nc(N[C@@H]3CCCC[C@@H]3N)nc21: 104
